EXPERIMENTAL DETAILS: Biodistribution experiments in normal mice after i.v. injection
Assay type: in vivo
RECORDED CONDITIONS: male, ddY, mouse, in vivo, iv, total radioactivity, Biodistribution of radioactivity, Large-intestine
Where a SMILES comes first, the peptide text is derived from it. [ ]: non-standard residue; d: D form. The star is where a group is joined. DOTA = O=C(O)CN1CCN(CC(=O)O)CCN(CC(=O)*)CCN(CC(=O)O)CC1
OUTCOME MEASURE: tissue uptake dose at 3 h (%ID)
// units = %ID; emit number, no label

[ask] Looking for the measured tissue uptake dose at 3 h of O=C(O)C[C@@H](NC(=O)[C@@H](CC(=O)O)NC(=O)[C@@H](CC(=O)O)NC(=O)[C@@H](CC(=O)O)NC(=O)[C@@H](CC(=O)O)NC(=O)[C@@H](CC(=O)O)NC(=O)[C@@H](CC(=O)O)NC(=O)[C@@H](CC(=O)O)NC(=O)CN1CCN(CC(=O)O)CCN(CC(=O)O)CCN(CC(=O)O)CC1)C(=O)O [^67Ga-DOTA-(D-Asp)8, metal not drawn] ({DOTA}-[dD][dD][dD][dD][dD][dD][dD][dD]-OH) , can you help?
[reply] 0.08

###

EXPERIMENTAL DETAILS: Biodistribution experiments in normal mice after i.v. injection
Assay type: in vivo
RECORDED CONDITIONS: male, ddY, mouse, in vivo, iv, total radioactivity, Biodistribution of radioactivity, Spleen
Where a SMILES comes first, the peptide text is derived from it. [ ]: non-standard residue; d: D form. The star is where a group is joined. DOTA = O=C(O)CN1CCN(CC(=O)O)CCN(CC(=O)*)CCN(CC(=O)O)CC1
OUTCOME MEASURE: tissue uptake dose at 3 h (%ID)
Report the figure in %ID without appending any unit label.

Look over these answered cases.
[ask] Consider the compound O=C(O)C[C@@H](NC(=O)[C@@H](CC(=O)O)NC(=O)[C@@H](CC(=O)O)NC(=O)[C@@H](CC(=O)O)NC(=O)[C@@H](CC(=O)O)NC(=O)CN1CCN(CC(=O)O)CCN(CC(=O)O)CCN(CC(=O)O)CC1)C(=O)O [^67Ga-DOTA-(D-Asp)5, metal not drawn] ({DOTA}-[dD][dD][dD][dD][dD]-OH) and give its measured tissue uptake dose at 3 h.
[reply] 0.11

[ask] Repeat for the following compound: O=C(O)C[C@@H](NC(=O)[C@@H](CC(=O)O)NC(=O)CN1CCN(CC(=O)O)CCN(CC(=O)O)CCN(CC(=O)O)CC1)C(=O)O [^67Ga-DOTA-(D-Asp)2, metal not drawn] ({DOTA}-[dD]-[dD]-OH)
[reply] 0.08

[ask] How about this compound: O=C(O)C[C@@H](NC(=O)[C@@H](CC(=O)O)NC(=O)[C@@H](CC(=O)O)NC(=O)[C@@H](CC(=O)O)NC(=O)[C@@H](CC(=O)O)NC(=O)[C@@H](CC(=O)O)NC(=O)[C@@H](CC(=O)O)NC(=O)[C@@H](CC(=O)O)NC(=O)CN1CCN(CC(=O)O)CCN(CC(=O)O)CCN(CC(=O)O)CC1)C(=O)O [^67Ga-DOTA-(D-Asp)8, metal not drawn] ({DOTA}-[dD][dD][dD][dD][dD][dD][dD][dD]-OH)
[reply] 0.09

Others:
[ask] For the compound O=C(O)CC[C@@H](NC(=O)[C@@H](CCC(=O)O)NC(=O)[C@@H](CCC(=O)O)NC(=O)[C@@H](CCC(=O)O)NC(=O)[C@@H](CCC(=O)O)NC(=O)[C@@H](CCC(=O)O)NC(=O)[C@@H](CCC(=O)O)NC(=O)[C@@H](CCC(=O)O)NC(=O)[C@@H](CCC(=O)O)NC(=O)[C@@H](CCC(=O)O)NC(=O)[C@@H](CCC(=O)O)NC(=O)[C@@H](CCC(=O)O)NC(=O)[C@@H](CCC(=O)O)NC(=O)[C@@H](CCC(=O)O)NC(=O)CN1CCN(CC(=O)O)CCN(CC(=O)O)CCN(CC(=O)O)CC1)C(=O)O [^67Ga-DOTA-(D-Glu)14, metal not drawn] , what tissue uptake dose at 3 h is on record?
[reply] 0.03

[ask] Then what about the compound O=C(O)CC[C@H](NC(=O)[C@H](CCC(=O)O)NC(=O)[C@H](CCC(=O)O)NC(=O)[C@H](CCC(=O)O)NC(=O)[C@H](CCC(=O)O)NC(=O)[C@H](CCC(=O)O)NC(=O)[C@H](CCC(=O)O)NC(=O)[C@H](CCC(=O)O)NC(=O)[C@H](CCC(=O)O)NC(=O)[C@H](CCC(=O)O)NC(=O)[C@H](CCC(=O)O)NC(=O)[C@H](CCC(=O)O)NC(=O)[C@H](CCC(=O)O)NC(=O)[C@H](CCC(=O)O)NC(=O)CN1CCN(CC(=O)O)CCN(CC(=O)O)CCN(CC(=O)O)CC1)C(=O)O [^67Ga-DOTA-(L-Glu)14, metal not drawn] ?
[reply] 0.11
